This collection of values is drawn from the supplement of paper PMC10567573.

B1: TSPAN10 (parent)
chain: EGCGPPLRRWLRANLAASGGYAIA

variants of: B1; test: protein stability index of a GFP-peptide fusion (GPS, HEK-293T) (PSI 1-6); higher = more stable; details: c terminus: a fixed tail appended;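 also: lentivirally expressed fusions sorted by FACS into six bins by GFP to DsRed ratio, PSI derived from sequencing read proportions per bin multiplied by bin number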
Would you please tag the item 1.0 when its protein stability index is 2 or above, and 0.0 when it is below?

{"Sequence Record": "EGCGPPLRRWHRANLAASGGYAIA [L11H]", "Assigned Category": 1.0}
{"Sequence Record": "ESCGPPLRRWLRANLAASGGYAIA [G2S]", "Assigned Category": 0.0}
{"Sequence Record": "EGCGPPDRRWLRANLAASGGYAIA [L7D]", "Assigned Category": 1.0}
{"Sequence Record": "EGHGPPLRRWLRANLAASGGYAIA [C3H]", "Assigned Category": 1.0}
{"Sequence Record": "EGCGPPLRRWLRTNLAASGGYAIA [A13T]", "Assigned Category": 1.0}
